pIC50: −log10 of the molar value.
parameter_measured: pIC50

[Q] Which measured pIC50 belongs to `Cc1ccc(NS(=O)(=O)Cc2ccccc2)c(O)c1CC(=O)N[C@H](C=O)CCCN=C(N)N` , tested on Plasmin (Homo sapiens)?
[A] < 5.60

* * *

parameter_measured: Ki (nM)
Give the quantity in nM, number only.

[Q] Which measured Ki belongs to Cc1ccc(NS(=O)(=O)Cc2ccccc2)c(O)c1CC(=O)N[C@H](C=O)CCCN=C(N)N [Example 11] , tested on human alpha-thrombin (Homo sapiens)?
[A] 0.79

* * *

Please go through the items and note down their pIC50.
# assay_system: rt-PA (Homo sapiens)
# Sequence (P00750 36-562): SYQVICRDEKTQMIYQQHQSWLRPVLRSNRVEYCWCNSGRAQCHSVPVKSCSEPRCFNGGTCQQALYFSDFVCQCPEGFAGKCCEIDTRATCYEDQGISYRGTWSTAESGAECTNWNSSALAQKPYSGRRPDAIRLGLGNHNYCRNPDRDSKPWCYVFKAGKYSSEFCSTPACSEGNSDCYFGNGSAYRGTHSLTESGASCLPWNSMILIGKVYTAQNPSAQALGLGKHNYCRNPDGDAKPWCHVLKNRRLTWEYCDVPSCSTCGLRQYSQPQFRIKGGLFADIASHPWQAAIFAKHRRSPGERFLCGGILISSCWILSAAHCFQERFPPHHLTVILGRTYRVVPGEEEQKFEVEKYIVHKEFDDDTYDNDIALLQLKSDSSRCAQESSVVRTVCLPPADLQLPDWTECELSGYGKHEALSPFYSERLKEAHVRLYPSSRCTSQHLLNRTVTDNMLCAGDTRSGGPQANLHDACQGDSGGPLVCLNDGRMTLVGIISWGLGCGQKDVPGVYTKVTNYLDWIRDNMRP
# method_description: Recombinant tissue plasminogen activator (rt-PA) IC50 assay
# test_context: maximal concentration 2500 nM
pIC50: −log10 of the molar value.

[Q] Quick check: pIC50 of `Cc1ccc(NS(=O)(=O)Cc2ccccc2)c(O)c1CC(=O)N[C@H](C=O)CCCN=C(N)N` ?
[A] < 5.60

[Q] Quick check: pIC50 of `COc1c(NS(=O)(=O)Cc2ccccc2)ccc(C)c1CC(=O)N[C@H](C=O)CCCN=C(N)N` ?
[A] < 5.60

* * *

# assay_system: Chymotrypsin (Bos taurus)
# Construct: bovine pancreatic a-chymotrypsin; purchased Worthington Biochemical Corp. CDI; host or cells: bovine pancreas
# method_description: Chymotrypsin IC50 assay
# Assay type: biochemical, bovine
# test_context: maximal concentration 2500 nM
pIC50: −log10 of the molar value.
parameter_measured: pIC50

[Q] Quick check: pIC50 of `COc1c(NS(=O)(=O)Cc2ccccc2)ccc(C)c1CC(=O)N[C@H](C=O)CCCN=C(N)N` ?
[A] < 5.60

* * *

# assay_system: Trypsin (Bos taurus, UniProt P00760)
# Sequence (P00760 24-246): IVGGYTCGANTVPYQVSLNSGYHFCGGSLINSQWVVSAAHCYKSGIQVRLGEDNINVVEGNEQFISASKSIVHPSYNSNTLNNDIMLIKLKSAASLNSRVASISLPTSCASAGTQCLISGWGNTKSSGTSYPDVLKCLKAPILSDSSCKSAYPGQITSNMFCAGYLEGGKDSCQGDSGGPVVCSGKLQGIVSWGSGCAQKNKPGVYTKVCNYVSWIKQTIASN
parameter_measured: pIC50
# reply with the number alone; pIC50 is -log10 of concentration in mol/L

[Q] Quick check: pIC50 of `COc1c(NS(=O)(=O)Cc2ccccc2)ccc(C)c1CC(=O)N[C@H](C=O)CCCN=C(N)N` ?
[A] 5.74
